# efficacy (kill in %) per entry
Tested on: unfed adult cat fleas (Ctenocephalides felis)
measurement_description: Ctenocephalides felis - oral test
Format: in vivo
test_parameters: application rate 100 ppm in citrated cattle blood, after 2 days

Known results for compounds:
| compound | readout_value |
| --- | --- |
| CCS(=O)(=O)c1ccc(-n2ccc(-c3cccc(Cl)c3)n2)nc1-c1nc2cc(C(F)(F)F)ncc2n1C [Example I-23] | 100% |
| CCS(=O)(=O)c1ccc(-n2cnn(-c3ccccc3F)c2=O)nc1-c1nc2cc(C(F)(F)F)cnc2n1C [Example I-32] | 100% |
| CCS(=O)(=O)c1ccc(-n2ccc(-c3ccc(Cl)cc3)n2)nc1-c1nc2cc(C(F)(F)F)ncc2n1C [Example I-6] | 90% |
| CCS(=O)(=O)c1ccc(-n2cc(-c3cccc(Br)c3)cn2)nc1-c1nc2cc(C(F)(F)F)ncc2n1C [Example I-12] | 100% |
| CCS(=O)(=O)c1ccc(-n2nnn(-c3ccc(Cl)cc3)c2=O)nc1-c1nc2cc(C(F)(F)F)ncc2n1C [Example I-21] | 80% |

Req: Tell me its efficacy (kill in %) given CCS(=O)(=O)c1ccc(-n2cc(-c3ncccc3Cl)cn2)nc1-c1nc2cc(C(F)(F)F)ncc2n1C [Example I-7] as the entry.
Resp: 100%

----------
System: unfed adult cat fleas (Ctenocephalides felis)
measurement_description: Ctenocephalides felis - oral test
Assay type: in vivo
test_parameters: application rate 100 ppm in citrated cattle blood, after 2 days
# efficacy (kill in %) per entry
Answer format: value, then unit.

Known results for compounds:
| compound | test_readout | readout_value |
| --- | --- | --- |
| CCS(=O)(=O)c1ccc(-c2cnn(-c3ccccc3F)c2)nc1-c1nc2cc(C(F)(F)F)ncc2n1C | efficacy (kill in %) | 100% |
| CCS(=O)(=O)c1ccc(-n2ncn(-c3ccccc3)c2=O)nc1-c1nc2cc(C(F)(F)F)ncc2n1C | efficacy (kill in %) | 100% |

Req: Tell me its efficacy (kill in %) given `CCS(=O)(=O)c1ccc(-n2ncn(-c3ccc(Cl)cc3)c2=O)nc1-c1nc2cc(C(F)(F)F)ncc2n1C` as the entry.
Resp: 100%

Req: Tell me its efficacy (kill in %) given `CCS(=O)(=O)c1ccc(-n2ccn(-c3ccc(Br)cc3)c2=O)nc1-c1nc2cc(C(F)(F)F)ncc2n1C` as the entry.
Resp: 100%

----------
Test system: unfed adult cat fleas (Ctenocephalides felis)
measurement_description: Ctenocephalides felis - oral test
Type: in vivo
test_parameters: application rate 100 ppm in citrated cattle blood, after 2 days
# efficacy (kill in %) per entry
Only the number, expressed in %, is required.

| compound | readout_units | readout_value |
| --- | --- | --- |
| CCS(=O)(=O)c1ccc(-n2ncn(-c3ccc(Br)cc3)c2=O)nc1-c1nc2cc(C(F)(F)F)ncc2n1C | % | 100 |
| CCS(=O)(=O)c1ccc(-n2ncn(-c3cccnc3)c2=O)nc1-c1nc2cc(C(F)(F)F)ncc2n1C | % | 95 |
| CCS(=O)(=O)c1ccc(-n2cnn(-c3ccccc3F)c2=O)nc1-c1nc2cc(C(F)(F)F)ncc2n1C | % | 100 |

Attention now shifts to the item below.
Req: Tell me its efficacy (kill in %) given `CCS(=O)(=O)c1ccc(-n2ncn(-c3ccccc3F)c2=O)nc1-c1nc2cc(C(F)(F)F)ncc2n1C` as the entry.
Resp: 100
